Molecular target: JAK1 (Homo sapiens, UniProt P23458)
Construct: purchased Carna Biosciences, Inc
Sequence (P23458 whole entry): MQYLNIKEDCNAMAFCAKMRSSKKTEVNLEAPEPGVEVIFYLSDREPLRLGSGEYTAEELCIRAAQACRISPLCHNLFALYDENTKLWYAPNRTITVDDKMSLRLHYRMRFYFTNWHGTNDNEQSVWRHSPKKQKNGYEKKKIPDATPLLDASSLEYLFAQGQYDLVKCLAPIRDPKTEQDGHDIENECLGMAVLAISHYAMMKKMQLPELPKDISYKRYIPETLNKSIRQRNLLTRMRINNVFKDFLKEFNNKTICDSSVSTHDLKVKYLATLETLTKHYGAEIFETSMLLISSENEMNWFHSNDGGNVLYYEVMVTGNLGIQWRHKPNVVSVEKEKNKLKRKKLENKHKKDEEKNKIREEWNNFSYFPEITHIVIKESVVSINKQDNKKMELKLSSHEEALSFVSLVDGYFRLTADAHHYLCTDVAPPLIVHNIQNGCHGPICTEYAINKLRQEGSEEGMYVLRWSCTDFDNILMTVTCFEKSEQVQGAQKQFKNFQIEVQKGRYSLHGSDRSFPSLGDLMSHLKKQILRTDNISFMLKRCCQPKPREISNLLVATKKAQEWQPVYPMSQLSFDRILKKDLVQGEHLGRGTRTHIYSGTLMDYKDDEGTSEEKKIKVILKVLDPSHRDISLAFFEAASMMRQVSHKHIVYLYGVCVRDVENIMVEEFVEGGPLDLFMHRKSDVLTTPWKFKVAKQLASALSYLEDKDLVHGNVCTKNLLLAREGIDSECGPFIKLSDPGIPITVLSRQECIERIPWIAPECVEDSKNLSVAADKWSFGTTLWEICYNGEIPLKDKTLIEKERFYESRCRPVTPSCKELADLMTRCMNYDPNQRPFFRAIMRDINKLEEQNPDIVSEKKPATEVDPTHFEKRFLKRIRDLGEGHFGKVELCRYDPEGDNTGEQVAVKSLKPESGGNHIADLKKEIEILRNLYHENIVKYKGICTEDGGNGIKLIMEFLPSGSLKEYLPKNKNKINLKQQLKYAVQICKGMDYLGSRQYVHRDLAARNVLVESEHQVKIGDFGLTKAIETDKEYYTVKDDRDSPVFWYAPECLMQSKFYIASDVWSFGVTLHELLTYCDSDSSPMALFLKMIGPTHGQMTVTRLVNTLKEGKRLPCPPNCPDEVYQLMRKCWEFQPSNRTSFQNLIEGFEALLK
Assay: JAK tyrosine kinase inhibitory activity in the presence of 1 mM ATP (ELISA), JAK1
Assay type: biochemical
Counter-ions that a name gives are not always drawn.
Recorded Metric: IC50 (nM)

# Molecule, Tested On, Measured Value
rows = [
    ("COCCOC(=O)NC1CCN(C(=O)c2cc(N[C@H](C)C3CC3)nc(-c3cnn4ccsc34)n2)CC1 [Example 88]", "JAK1 (Homo sapiens, UniProt P23458)", 190),
]

a: Cc1ccccc1C(=O)NC1CCN(C(=O)c2cc(N[C@@H](C)C3CC3)nc(-c3cnn4ccsc34)n2)CC1 [Example 184]
b: COC(=O)NC1CCN(C(=O)c2cc(OC(C)C(C)(C)C)nc(-c3cnn4ccsc34)n2)CC1 (stereo not drawn) [Example 64]
c: COC(=O)NC1CCN(C(=O)c2cc(NCC(F)(F)F)nc(-c3cnn4ccsc34)n2)CC1 [Example 158]
d: COC(=O)NC1CCN(C(=O)c2cc(N(C)C(C)(C)C)nc(-c3cnn4ccsc34)n2)CC1 [Example 132, hydrochloride]
e: CCC(CC)Oc1cc(C(=O)N2CCC(NC(=O)C3CC3)CC2)nc(-c2cnn3ccsc23)n1 [Example 111]
query: Sort by IC50, descending. A complete answer lists every label in the requested sequence.
result: c, d, b, e, a

a: CCCCC(=O)NC1CCN(C(=O)c2cc(N[C@@H](C)C3CC3)nc(-c3cnn4ccsc34)n2)CC1 [Example 190]
b: O=C(NC1CCN(C(=O)c2cc(NCc3ccco3)nc(-c3cnn4ccsc34)n2)CC1)C1CC1 [Example 160]
c: COC(=O)NC1CCN(C(=O)c2nc(-c3cnn4ccsc34)nc(N[C@@H](C)C3CC3)c2OC)CC1 [Example 145]
d: C[C@H](Nc1cc(C(=O)N2CCC(NC(=O)OCC(F)F)CC2)nc(-c2cnn3ccsc23)n1)C(C)(C)C [Example 99]
query: Sort by IC50, descending. A complete answer lists every label in the requested sequence.
result: b, c, a, d
(b: 980 nM, c: 270 nM, a: 65 nM, d: 19 nM)

P: C[C@@H](COC(F)F)Nc1cc(C(=O)N2CCC(NC(=O)C3CC3)CC2)nc(-c2cnn3ccsc23)n1 [Example 17]
Q: CCC(=O)N1CCC(Nc2cc(C(=O)N3CCC(NC(=O)OC)CC3)nc(-c3cnn4ccsc34)n2)CC1 [Example 198]
R: CC(C)(C)Nc1cc(C(=O)N2CCC(Nc3nccs3)CC2)nc(-c2cnn3ccsc23)n1 [Example 75]
S: COC(=O)NC1CCN(C(=O)c2cc(Oc3cccnc3)nc(-c3cnn4ccsc34)n2)CC1 [Example 156]
query: Sort the molecules on IC50; start with the lowest figure. A complete answer lists every label in the requested sequence.
result: R, P, S, Q

###

Biological target: JAK2 (Homo sapiens, UniProt O60674)
Construct: purchased Carna Biosciences, Inc
Sequence (O60674 whole entry): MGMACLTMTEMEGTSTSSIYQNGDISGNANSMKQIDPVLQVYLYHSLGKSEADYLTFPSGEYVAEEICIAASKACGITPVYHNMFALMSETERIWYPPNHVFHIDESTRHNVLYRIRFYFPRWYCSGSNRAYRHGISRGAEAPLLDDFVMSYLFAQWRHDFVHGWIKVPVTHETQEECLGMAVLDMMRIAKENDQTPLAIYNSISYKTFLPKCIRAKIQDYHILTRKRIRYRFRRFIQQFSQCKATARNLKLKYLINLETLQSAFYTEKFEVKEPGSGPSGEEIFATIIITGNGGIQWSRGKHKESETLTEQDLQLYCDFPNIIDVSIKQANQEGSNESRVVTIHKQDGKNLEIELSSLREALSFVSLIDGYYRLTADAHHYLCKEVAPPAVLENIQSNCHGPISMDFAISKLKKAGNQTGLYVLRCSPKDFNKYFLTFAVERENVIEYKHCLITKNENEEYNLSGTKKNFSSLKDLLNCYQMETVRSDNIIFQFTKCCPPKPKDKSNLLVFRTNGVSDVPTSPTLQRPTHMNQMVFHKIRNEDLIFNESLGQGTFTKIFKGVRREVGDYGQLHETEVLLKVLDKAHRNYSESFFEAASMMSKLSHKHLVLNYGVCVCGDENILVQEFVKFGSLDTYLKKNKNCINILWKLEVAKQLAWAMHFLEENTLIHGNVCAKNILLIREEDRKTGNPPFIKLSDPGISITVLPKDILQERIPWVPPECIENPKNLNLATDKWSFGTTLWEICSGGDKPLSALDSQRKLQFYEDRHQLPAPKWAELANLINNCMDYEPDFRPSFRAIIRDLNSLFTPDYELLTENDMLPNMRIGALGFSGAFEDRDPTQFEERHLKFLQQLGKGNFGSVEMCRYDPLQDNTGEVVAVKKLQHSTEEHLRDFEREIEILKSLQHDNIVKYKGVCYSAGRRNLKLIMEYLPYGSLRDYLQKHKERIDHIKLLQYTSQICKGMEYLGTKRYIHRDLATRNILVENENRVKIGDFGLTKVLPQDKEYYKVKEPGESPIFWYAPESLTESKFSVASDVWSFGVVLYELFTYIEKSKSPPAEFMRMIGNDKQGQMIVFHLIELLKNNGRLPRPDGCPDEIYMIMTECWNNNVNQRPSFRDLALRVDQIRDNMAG
Assay: JAK tyrosine kinase inhibitory activity in the presence of 1 mM ATP (ELISA), JAK2
Assay type: biochemical
Recorded Metric: IC50 (nM)

Answered cases to consult:
# Molecule, IC50, nM
records = [
    ("CC(C)(C)CNc1cc(C(=O)N2CCC(O)CC2)nc(-c2cnn3ccsc23)n1 [Example 94]", 2200),
    ("CCC(CC)Nc1cc(C(=O)N2CCC(NC(=O)OC)CC2)nc(-c2cnn3ccsc23)n1 [Example 109]", 1800),
    ("C[C@@H](Nc1cc(C(=O)N2CCC(NC(=O)c3ccc(F)cc3)CC2)nc(-c2cnn3ccsc23)n1)C(C)(C)C [Example 197]", 8200),
    ("C[C@@H](Nc1cc(C(=O)N2CCC(NC(=O)C3CC3)CC2)nc(-c2cnn3ccsc23)n1)C(C)(C)C [Example 16]", 2200),
    ("C[C@@H](Nc1cc(C(=O)N2CCC(NC(=O)C3CC3)CC2)nc(-c2cnn3ccsc23)n1)C1CC1 [Example 46]", 1600),
    ("CCC(=O)NC1CCN(C(=O)c2cc(NC3(C)CC3)nc(-c3cnn4ccsc34)n2)CC1 [Example 128]", 8500),
]

A: Cc1c(N[C@@H](C)C2CC2)nc(-c2cnn3ccsc23)nc1C(=O)N1CCC(NC(=O)C(F)F)CC1 [Example 18]
B: CC(C)(C)Nc1cc(C(=O)N2CCC(NC(=O)C3CC3)CC2)nc(-c2cnn3ccsc23)n1 [Example 36]
query: I'm curious, which of these has a smaller IC50 number: A or B ? Identify your selection by its label.
result: B

###

Target: JAK2 (Homo sapiens)
Construct: purchased Carna Biosciences, Inc
Test: JAK tyrosine kinase inhibitory activity in the presence of 1 mM ATP (ELISA), JAK2
Format: biochemical
Counter-ions that a name gives are not always drawn.
Recorded Metric: IC50 (nM)

# Compound, Tested On, Unit Annotation, IC50
records = [
    ("C[C@H](Nc1cc(C(=O)N2CCC(NC(=O)C3CC3)CC2)nc(-c2cnn3ccsc23)n1)C1CC1 [Example 1, hydrochloride]", "JAK2 (Homo sapiens)", "nM", 3400),
    ("CC(C)C(=O)NC1CCN(C(=O)c2cc(N[C@H](C)c3ccc(F)cc3)nc(-c3cnn4ccsc34)n2)CC1", "JAK2 (Homo sapiens)", "nM", 3300),
    ("C[C@H](Nc1cc(C(=O)N2CCC(NC(=O)OC(C)(C)CF)CC2)nc(-c2cnn3ccsc23)n1)C1CC1 [Example 21, hydrochloride]", "JAK2 (Homo sapiens)", "nM", 2200),
]

a: CCC(CC)Oc1cc(C(=O)N2CCC(NC(=O)OC)CC2)nc(-c2cnn3ccsc23)n1
b: CO[C@H]1CCC[C@@H]1Nc1cc(C(=O)N2CCC(NC(=O)C3CC3)CC2)nc(-c2cnn3ccsc23)n1
query: I'm curious, which of these has a smaller IC50 number: a or b ? Identify your selection by its label.
result: a

###

Molecular target: JAK1 (Homo sapiens)
Construct: purchased Carna Biosciences, Inc
Experiment: JAK tyrosine kinase inhibitory activity in the presence of 1 mM ATP (ELISA), JAK1
Format: biochemical
Recorded Metric: IC50 (nM)

Answered cases to consult:
# Compound, Tested On, Recorded Metric, Measured Value
measured = [
    ("COC(=O)NC1CCN(C(=O)c2cc(NCC(C)(C)CC3CC3)nc(-c3cnn4ccsc34)n2)CC1", "JAK1 (Homo sapiens)", "IC50", 300),
    ("COC(=O)NC1CCN(C(=O)c2nc(-c3cnn4ccsc34)nc(N[C@H](C)C(C)(C)C)c2OC)CC1", "JAK1 (Homo sapiens)", "IC50", 270),
    ("CC(C)(C)OC(=O)N1CCC(Nc2cc(C(=O)N3CCC(NC(=O)C4CC4)CC3)nc(-c3cnn4ccsc34)n2)CC1", "JAK1 (Homo sapiens)", "IC50", 850),
    ("COC(=O)NC1CCN(C(=O)c2cc(N[C@@H](C)C(C)(C)C)nc(-c3cnn4ccsc34)n2)CC1", "JAK1 (Homo sapiens)", "IC50", 130),
    ("O=C(NC1CCN(C(=O)c2cc(OC3CCC3)nc(-c3cnn4ccsc34)n2)CC1)C1CC1", "JAK1 (Homo sapiens)", "IC50", 310),
    ("CCC(=O)NC1CCN(C(=O)c2cc(N[C@@H](C)CC)nc(-c3cnn4ccsc34)n2)CC1", "JAK1 (Homo sapiens)", "IC50", 310),
    ("COC(=O)NC1CCN(C(=O)c2cc(OCC3CN(C(=O)OC(C)(C)C)C3)nc(-c3cnn4ccsc34)n2)CC1", "JAK1 (Homo sapiens)", "IC50", 2600),
    ("COC(=O)NC1CCN(C(=O)c2cc(N[C@@H]3CCN(C(=O)OC(C)(C)C)C3)nc(-c3cnn4ccsc34)n2)CC1", "JAK1 (Homo sapiens)", "IC50", 1600),
    ("COC(=O)NC1CCN(C(=O)c2cc(NC3CCCCC3)nc(-c3cnn4ccsc34)n2)CC1", "JAK1 (Homo sapiens)", "IC50", 560),
    ("CO[C@H]1CCC[C@@H]1Nc1cc(C(=O)N2CCC(NC(=O)C3CC3)CC2)nc(-c2cnn3ccsc23)n1", "JAK1 (Homo sapiens)", "IC50", 710),
]

A: C[C@H](Nc1cc(C(=O)N2CCC(NC(=O)c3cccs3)CC2)nc(-c2cnn3ccsc23)n1)C1CC1
B: CC(C)OC(=O)NC1CCN(C(=O)c2cc(N[C@H](C)C(C)(C)C)nc(-c3cnn4ccsc34)n2)CC1
query: I'm curious, which of these has a smaller IC50 number: A or B ? Identify your selection by its label.
result: B
(B: 140 nM, A: 380 nM)

###

Target: JAK3 (Homo sapiens)
Construct: purchased Carna Biosciences, Inc
Sequence (P52333 whole entry): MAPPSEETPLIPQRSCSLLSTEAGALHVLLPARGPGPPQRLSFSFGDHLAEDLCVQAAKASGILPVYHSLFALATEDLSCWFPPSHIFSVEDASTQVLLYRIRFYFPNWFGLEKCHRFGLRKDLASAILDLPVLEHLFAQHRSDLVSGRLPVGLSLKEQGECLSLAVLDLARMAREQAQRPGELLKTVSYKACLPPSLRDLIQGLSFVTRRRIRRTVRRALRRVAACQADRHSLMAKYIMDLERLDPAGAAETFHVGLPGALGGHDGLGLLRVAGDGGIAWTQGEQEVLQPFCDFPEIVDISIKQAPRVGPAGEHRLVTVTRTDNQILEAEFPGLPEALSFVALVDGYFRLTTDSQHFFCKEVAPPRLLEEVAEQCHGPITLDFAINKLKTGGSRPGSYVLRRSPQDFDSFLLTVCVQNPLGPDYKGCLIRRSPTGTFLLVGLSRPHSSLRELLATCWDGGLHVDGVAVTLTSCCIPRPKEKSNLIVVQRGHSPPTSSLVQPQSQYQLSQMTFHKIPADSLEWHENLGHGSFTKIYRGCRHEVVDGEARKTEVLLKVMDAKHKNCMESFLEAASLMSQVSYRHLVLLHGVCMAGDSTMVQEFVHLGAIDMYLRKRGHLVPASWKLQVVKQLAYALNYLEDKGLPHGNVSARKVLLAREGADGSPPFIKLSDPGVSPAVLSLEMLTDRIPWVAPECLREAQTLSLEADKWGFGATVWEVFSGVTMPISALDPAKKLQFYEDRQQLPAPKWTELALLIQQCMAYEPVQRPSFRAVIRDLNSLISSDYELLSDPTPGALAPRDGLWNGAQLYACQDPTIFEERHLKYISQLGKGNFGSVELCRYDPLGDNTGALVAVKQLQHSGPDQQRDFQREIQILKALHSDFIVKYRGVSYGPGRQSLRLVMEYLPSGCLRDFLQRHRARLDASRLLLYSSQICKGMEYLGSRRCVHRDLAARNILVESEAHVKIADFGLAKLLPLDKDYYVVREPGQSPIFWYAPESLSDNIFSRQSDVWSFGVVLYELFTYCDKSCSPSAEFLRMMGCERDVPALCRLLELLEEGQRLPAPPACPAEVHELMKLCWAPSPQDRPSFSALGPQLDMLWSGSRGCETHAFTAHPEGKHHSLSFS
Assay: JAK tyrosine kinase inhibitory activity in the presence of 1 mM ATP (ELISA), JAK3
Type: biochemical
Recorded Metric: IC50 (nM)

# Compound, Measured Value
rows = [
    ("CC(C)(C)CNc1cc(C(=O)N2CCC(O)CC2)nc(-c2cnn3ccsc23)n1", 5400),
    ("CCOC(=O)NC1CCN(C(=O)c2cc(NC(C)(C)C)nc(-c3cnn4ccsc34)n2)CC1", 4000),
    ("COC(=O)NC1CCN(C(=O)c2cc(N[C@@H](C)C3CC3)nc(-c3cnn4ccsc34)n2)CC1.Cl [Example 27, hydrochloride]", 4300),
]
